# subject-of-test: human TRPM5 ion channel (Homo sapiens)
# Sequence (Q9NZQ8 1-1165): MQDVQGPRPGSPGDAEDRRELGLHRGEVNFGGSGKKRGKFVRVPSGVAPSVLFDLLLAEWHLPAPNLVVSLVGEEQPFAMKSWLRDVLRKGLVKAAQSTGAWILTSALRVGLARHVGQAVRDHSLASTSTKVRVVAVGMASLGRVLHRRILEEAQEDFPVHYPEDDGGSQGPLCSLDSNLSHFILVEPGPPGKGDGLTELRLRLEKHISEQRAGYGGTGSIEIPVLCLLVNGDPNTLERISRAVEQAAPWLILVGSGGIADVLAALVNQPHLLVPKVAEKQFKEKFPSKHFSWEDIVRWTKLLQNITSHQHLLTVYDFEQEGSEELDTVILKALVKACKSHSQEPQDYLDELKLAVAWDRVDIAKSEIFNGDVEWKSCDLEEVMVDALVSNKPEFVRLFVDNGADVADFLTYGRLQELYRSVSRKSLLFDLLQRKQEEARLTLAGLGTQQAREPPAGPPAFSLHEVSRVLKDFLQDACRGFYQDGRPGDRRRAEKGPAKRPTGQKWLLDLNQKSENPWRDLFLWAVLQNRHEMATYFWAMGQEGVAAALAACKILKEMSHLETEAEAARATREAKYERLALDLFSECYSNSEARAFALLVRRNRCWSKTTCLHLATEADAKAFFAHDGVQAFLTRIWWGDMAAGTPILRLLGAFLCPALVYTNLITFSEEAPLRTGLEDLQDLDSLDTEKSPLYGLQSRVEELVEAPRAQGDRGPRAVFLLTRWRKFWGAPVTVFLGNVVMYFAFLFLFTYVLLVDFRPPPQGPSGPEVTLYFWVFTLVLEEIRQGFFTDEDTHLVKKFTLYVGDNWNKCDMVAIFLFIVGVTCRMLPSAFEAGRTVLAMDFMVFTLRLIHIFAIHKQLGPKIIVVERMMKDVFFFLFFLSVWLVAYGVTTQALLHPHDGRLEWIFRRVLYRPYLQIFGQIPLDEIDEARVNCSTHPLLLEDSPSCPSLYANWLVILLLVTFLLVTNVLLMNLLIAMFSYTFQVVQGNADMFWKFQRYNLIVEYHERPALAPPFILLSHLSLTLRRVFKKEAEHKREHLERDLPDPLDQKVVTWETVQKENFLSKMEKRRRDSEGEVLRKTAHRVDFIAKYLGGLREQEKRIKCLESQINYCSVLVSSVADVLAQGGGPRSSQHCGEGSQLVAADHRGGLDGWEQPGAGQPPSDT
# assay-remarks: FLIPR-based assay for membrane potential and calcium mobilization (TRPM5 inhibiting activity)
# condition-context: live cells, 30° C., read-out: hTrpM5 IC50
quantity: IC50 (nM)

Worked examples follow.
{"columns": ["compound", "subject-of-test", "quantity", "value-unit", "val"],
 "data": [
  ["O=C(N/N=C/c1cc(Cl)c2ncccc2c1)[C@@H]1C[C@H]1c1cccc(Cl)c1 (relative stereo) [Example 28]", "human TRPM5 ion channel (Homo sapiens)", "IC50", "nM", 650],
  ["Cc1ccnc2ccc(/C=N/NC(=O)CCn3cc(C)c4ccccc43)cc12 [Example 62]", "human TRPM5 ion channel (Homo sapiens)", "IC50", "nM", 370],
  ["COc1cc(/C=N/NC(=O)CCn2cc(C)c3c(C)cccc32)ccc1OCc1cccnc1 [Example 16]", "human TRPM5 ion channel (Homo sapiens)", "IC50", "nM", 53],
  ["COc1cc(/C=N/NC(=O)C2CC2c2ccccc2)ccc1OCc1cccnc1 (stereo not shown) [Example 20]", "human TRPM5 ion channel (Homo sapiens)", "IC50", "nM", 1600],
  ["Cc1cc(/C=N/NC(=O)C2CC2c2ccc(Cl)cn2)cc2cccnc12 (stereo not shown) [Example 43]", "human TRPM5 ion channel (Homo sapiens)", "IC50", "nM", 5400]
]}

[1] COc1ccc(/C=N/NC(=O)CCn2ccc3ccccc32)cc1OC [Example 54]
[2] COc1ccc(C=NNC(=O)[C@@H]2C[C@H]2c2cnc3ccccc3c2)cc1OC (relative stereo) [Example 38]
[3] COc1cc(/C=N/NC(=O)CCn2cc(C)c3c(C)cccc32)cc(Cl)c1OC [Example 15]
[4] COc1ccc(/C=N/NC(=O)CCn2cc(C)c3c(OC)cccc32)cc1OC [Example 46]
[5] COc1ccc(/C=N/NC(=O)CCn2ccc3c(C)cccc32)cc1OC [Example 57]
Which order do these items take when sorted by rising IC50? List them. # respond with the labels, arranged in the requested order
4, 5, 3, 1, 2
(4: 6 nM, 5: 12 nM, 3: 38 nM, 1: 170 nM, 2: 610 nM)

[1] Cc1cc(/C=N/NC(=O)CCc2cn(C)c3ccccc23)cc2cccnc12 [Example 23]
[2] COc1ccc(/C=N/NC(=O)CSc2ccccc2)cc1OC [Example 55]
[3] COc1cc(/C=N/NC(=O)CCn2cc(C)c3c(C)cccc32)ccc1OCc1ccccc1 [Example 12]
Returns the items ordered by IC50, from maximum to minimum. # respond with the labels, arranged in the requested order
2, 1, 3

[P] COc1cc(/C=N/NC(=O)[C@@H]2C[C@H]2c2ccccc2)cc2cccnc12 (relative stereo) [Example 22]
[Q] Cc1cnc2ccc(/C=N/NC(=O)CCn3cc(C)c4ccccc43)cc2c1 [Example 61]
[R] COc1ccc(/C=N/NC(=O)[C@@H]2C[C@H]2c2ccc3ccccc3n2)cc1OC (relative stereo) [Example 36]
[S] COc1ccc(/C=N/NC(=O)CCn2cc(CN(C)C)c3c(Cl)cccc32)cc1OC [Example 47]
Which order do these items take when sorted by rising IC50? List them. # respond with the labels, arranged in the requested order
P, Q, R, S
